experiment summary: plasma stability (human)
Type: in vitro ADME
Task for the reader: assign each of the following molecules its reported remaining at 2 h.
Number only, in %; omit the unit.

query: Value lookup for remaining at 2 h; key = CC(C)[C@H](NC(=O)[C@H](C)NC(=O)[C@@H](NC(=O)c1ccccc1)C(C)(C)C)C(=O)C(=O)NCc1ccccc1 [Compound 1]
result: 100

query: Now the molecule CC(C)[C@H](NC(=O)[C@H](C)NC(=O)[C@@H](NC(=O)C1CC[N+](C)(C)CC1)C(C)(C)C)C(=O)C(=O)NCc1ccccc1 [Compound 2]
result: 100

---

experiment summary: hepatocyte stability (human)
Type: in vitro ADME
condition set: hepatocytes
test readout: half-life (h)
Number only, in h; omit the unit.

query: Value lookup for half-life; key = CC(C)[C@H](NC(=O)[C@H](C)NC(=O)[C@@H](NC(=O)c1ccccc1)C(C)(C)C)C(=O)C(=O)NCc1ccccc1
result: 3.02

---

experiment summary: hepatocyte stability (rat)
Format: in vitro ADME
condition set: hepatocytes
test readout: half-life (h)
Number only, in h; omit the unit.

query: Value lookup for half-life; key = CC(C)[C@H](NC(=O)[C@H](C)NC(=O)[C@@H](NC(=O)c1ccccc1)C(C)(C)C)C(=O)C(=O)NCc1ccccc1
result: 1.97

---

Task for the reader: assign each of the following molecules its reported remaining at 2 h.
experiment summary: plasma stability (rat)
Type: in vitro ADME
Number only, in %; omit the unit.

query: Value lookup for remaining at 2 h; key = CC(C)[C@H](NC(=O)[C@H](C)NC(=O)[C@@H](NC(=O)C1CC[N+](C)(C)CC1)C(C)(C)C)C(=O)C(=O)NCc1ccccc1
result: 100

query: Now the molecule CC(C)[C@H](NC(=O)[C@H](C)NC(=O)[C@@H](NC(=O)c1ccccc1)C(C)(C)C)C(=O)C(=O)NCc1ccccc1
result: 100

---

experiment summary: hepatocyte stability (human)
Format: in vitro ADME
condition set: hepatocytes, read-out: hepatocyte intrinsic clearance
test readout: CLint scaled (mL/min/kg)
Number only, in mL/min/kg; omit the unit.

query: Value lookup for CLint scaled; key = CC(C)[C@H](NC(=O)[C@H](C)NC(=O)[C@@H](NC(=O)c1ccccc1)C(C)(C)C)C(=O)C(=O)NCc1ccccc1
result: 11.7

---

experiment summary: permeability (Papp)
Type: in vitro ADME
condition set: not told
test readout: Papp

query: Value lookup for Papp; key = CC(C)[C@H](NC(=O)[C@H](C)NC(=O)[C@@H](NC(=O)c1ccccc1)C(C)(C)C)C(=O)C(=O)NCc1ccccc1
result: 6.2 ×10⁻⁶ cm/s

---

Test system: unsensitized BN rats
experiment summary: HDM extract challenge in unsensitized (naive) BN rats, duration of protection
Assay type: in vivo
condition set: all time points; naive BN rats; HDM extract 10 µg Der p 1; single i.t. aerosol dose 50:1 molar equivalents
test readout: BAL neutrophil response: significance of effect (P<0.05)

Would you please look over these solved cases?
CC(C)[C@H](NC(=O)[C@H](C)NC(=O)[C@@H](NC(=O)c1ccnc2ccccc12)C(C)(C)C)C(=O)C(=O)NCC(=O)N1CCN(C(C)C)CC1; not significant
CC(C)[C@H](NC(=O)[C@H](C)NC(=O)[C@@H](NC(=O)c1ccnc2ccccc12)C(C)(C)C)C(=O)C(=O)NCc1ccccc1; significant
CC(C)[C@H](NC(=O)[C@H](C)NC(=O)[C@H](Cc1ccccc1)NC(=O)c1ccccc1)C(=O)C(=O)NCC(=O)N1CC[N+](C)(C)CC1.O=C[O-]; significant
CC(C)[C@H](NC(=O)[C@H](C)NC(=O)[C@@H](NC(=O)c1ccccc1)C(C)(C)C)C(=O)C(=O)NCC(=O)N1CCc2ccccc2C1; significant
CNC(=O)c1ccc(CNC(=O)C(=O)[C@@H](NC(=O)[C@H](C)NC(=O)[C@@H](N2Cc3ccccc3C2=O)C(C)(C)C)C(C)C)cc1; not significant
CC(C)[C@H](NC(=O)[C@H](C)NC(=O)[C@H](Cc1ccccc1)NC(=O)c1ccncc1)C(=O)C(=O)NCc1ccccc1; not significant

query: Value lookup for BAL neutrophil response: significance of effect (P<0.05); key = CC(C)[C@H](NC(=O)[C@H](C)NC(=O)[C@@H](NC(=O)c1ccccc1C(=O)O)C(C)(C)C)C(=O)C(=O)NCC(=O)N1CCN(C)CC1
result: significant

query: Now the compound CC(C)[C@H](NC(=O)[C@H](C)NC(=O)[C@@H](NC(=O)c1ccccc1)C12CC3CC(CC(C3)C1)C2)C(=O)C(=O)NCC(=O)N1CCN(C)CC1
result: significant

Just for reference, paper PMC9469500 is where these values come from.
